Recorded Epitope by entry
System: hT40, dGA, dGAE and truncated tau fragments
Experiment: Binding ELISA / epitope mapping of anti-tau scAbs with truncated tau proteins and 13mer peptides
Set-up: species or system human
Conditions: residue numbers of SEQ ID NO: 1 (hT40); CDR Tables 1-11

[
  {
    "Molecule": "3bD11: anti-tau clone, Table 10; SEQ ID NO: 637 (protein) scFv: RVRLQGSGPSLVKPSQTLSLTCTVSGFSFDSYYVGWVRQAPGKALEWLGNIYSTGRAFYNPALKSRLSITRDTSKSQVSLSVSSVTIEDTALYYCVRGSYYHGGGNGMVDFFDYWSPGLLVTVSSEGKSSGASGESKVDDQVVRTQPSSVSGSLGQRVSITCSGSSSNVGYGNYVGWFQQVPGSAPKLLIYAATSRASGVPDRFSGSRSGNTATLTIDSLQAEDEADYYCSSYQRGNTGVFGSGTRLTVLG",
    "Epitope": "37-49"
  },
  {
    "Molecule": "412B9: C-terminal anti-tau clone, Table 5; SEQ ID NO: 417 (protein, 412B9 amino acid sequence) QVQLQESGPSLVKPSQTLSLTCTVSGFSVISDSVAWVRQAPGKVPEWLGASGSSGNKYYNPALKSRLSITRDTSKSQVSLSLSSVTTEDTAVYYCARGIIAGVDVWGRGLLVSVSSEGKSSGASGESKVDDQAVLTQPSSVSGALGQRVSITCSGSSSNVGYGDYVGWYQQVPGSAPKLLIYGAASRASGVPDRFSGSRSGNTATLTISSLQAEDEADYYCASYDSSDGGVFGSGTRLTVLG",
    "Epitope": "412-441"
  },
  {
    "Molecule": "3aG3: N-terminal anti-tau clone, Table 6; SEQ ID NO: 424 (protein, 3aG3 amino acid sequence) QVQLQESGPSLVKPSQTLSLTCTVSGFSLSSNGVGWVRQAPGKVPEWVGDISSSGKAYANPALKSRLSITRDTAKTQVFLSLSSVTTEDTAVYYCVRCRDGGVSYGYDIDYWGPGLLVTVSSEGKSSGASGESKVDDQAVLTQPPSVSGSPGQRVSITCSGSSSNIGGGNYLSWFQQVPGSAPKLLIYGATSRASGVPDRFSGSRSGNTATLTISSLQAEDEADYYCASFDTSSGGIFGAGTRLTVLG",
    "Epitope": "1-49"
  },
  {
    "Molecule": "3aB7: anti-tau clone, Table 7; SEQ ID NO: 420 (protein, 3aB7 amino acid sequence) QVQLQESGPSLVKPSQTLSLTCTVSGFSLTSNGVGWVRQAPGKVPEWVGDKSSAGKTYGNPALKSRLSITRDTSKSQVSLSLSSVTTEDTAVYYCVRCRDGGVTYGYDVDYWGPGLLVTVSSEGKSSGASGESKVDDQAVLTQPSSVSKSLGQSVSITCSGSSSNVGYGDVVSWFQQFPGSAPKLLIFGTTTRASGVPDRFSGSRSGNAATLTINSLQAEDEADYYCASFDSDSGGIAGSGTRLTVLG",
    "Epitope": "49-111"
  },
  {
    "Molecule": "S1D9: anti-tau clone, Table 2; SEQ ID NO: 413 (protein, S1D9 amino acid sequence) scFv: QVQLQESGPSLVKPSQTLSLTCTVSGFSLTSNSVGWVRQAPGKAPEWVAGIDSDGEEGYNPALNSRLSITRDTSKNQVSLSLSRVTSEDTAVYYCGRTYRTDGYAYGYVQAIDYWGPGLLVTVSSEGKSSGASGESKVDDRVMLTQPPSVSGSPGQTVSITCSGSFIGISSVGWFQQLPGSGLRTVIFASDGRPSGVPDRFSNSKSGNTATLTISSLQAEDEADYFCGSSDRTQYTGVFGSGTRLTVLS",
    "Epitope": "367-379"
  },
  {
    "Molecule": "3bG4: N-terminal anti-tau clone, Table 6; SEQ ID NO: 425 (protein, 3bG4 amino acid sequence) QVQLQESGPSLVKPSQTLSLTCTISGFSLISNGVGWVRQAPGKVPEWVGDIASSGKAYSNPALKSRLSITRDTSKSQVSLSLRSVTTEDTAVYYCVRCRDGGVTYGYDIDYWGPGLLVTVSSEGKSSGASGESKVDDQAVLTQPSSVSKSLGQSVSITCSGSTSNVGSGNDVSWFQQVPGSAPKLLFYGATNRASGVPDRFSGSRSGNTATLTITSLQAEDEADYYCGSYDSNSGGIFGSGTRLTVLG",
    "Epitope": "1-49"
  },
  {
    "Molecule": "CA4: anti-tau core clone, Table 10; SEQ ID NO: 368 (protein, CA4 amino acid sequence) scFv: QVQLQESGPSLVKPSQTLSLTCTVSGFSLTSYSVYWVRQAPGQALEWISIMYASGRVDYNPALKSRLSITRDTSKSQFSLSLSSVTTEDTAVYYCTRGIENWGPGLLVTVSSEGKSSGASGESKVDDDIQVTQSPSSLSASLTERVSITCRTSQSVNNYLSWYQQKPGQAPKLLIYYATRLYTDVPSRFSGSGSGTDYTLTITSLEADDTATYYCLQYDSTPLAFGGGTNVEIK",
    "Epitope": "355-367"
  },
  {
    "Molecule": "CB7: human-specific N-terminal anti-tau clone, Table 10; SEQ ID NO: 364 (protein, CB7 amino acid sequence) scFv: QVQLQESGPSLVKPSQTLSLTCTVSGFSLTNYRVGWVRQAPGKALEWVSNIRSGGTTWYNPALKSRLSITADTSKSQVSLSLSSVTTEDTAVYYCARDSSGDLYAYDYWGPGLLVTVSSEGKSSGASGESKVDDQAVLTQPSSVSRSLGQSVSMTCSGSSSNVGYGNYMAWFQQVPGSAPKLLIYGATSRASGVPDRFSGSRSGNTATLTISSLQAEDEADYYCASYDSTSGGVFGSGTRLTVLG",
    "Epitope": "13-25"
  }
]
